experiment: Cytotoxicity against NHEM cells assessed as cell viability after 72 hrs by WST-8 assay; assay type: cell-based; details: human
QUANTITY_KIND: Activity

For orientation, consider the following solved cases.
COc1ccc2c(c1)OC[C@H]1c3cc(OC)c(O)c(CC=C(C)C)c3O[C@@H]21 = Non-toxic
CC(C)=CCc1cc([C@@H]2CC(=O)c3c(cc(O)c(CC=C(C)C)c3O)O2)ccc1O = Non-toxic
CC(C)=CCc1cc(C(=O)[C@@H](O)Cc2ccc(O)cc2)c(O)cc1O = Non-toxic
CC(C)=CCc1cc2c(cc1O)O[C@H](c1ccc(O)cc1)CC2=O = Non-toxic

Lab book: Activity of `CC(C)=CCc1cc2c(c(CC=C(C)C)c1O)O[C@H](c1ccc3c(c1)C=CC(C)(C)O3)CC2=O` noted as Non-toxic

Lab book: Activity of `COc1ccc2c(c1)oc(=O)c1c3cc(O)c(O)c(CC=C(C)C)c3oc21` noted as Non-toxic

Lab book: Activity of `COc1ccc2c(c1)OCc1c-2oc2c3c(c(O)cc12)OC(C)(C)C=C3` noted as Non-toxic

Lab book: Activity of COc1c(O)ccc2c1OCC(c1ccc(O)c(OC)c1OC)=C2 [LESPEFLORIN E1] noted as Non-toxic

###

assay: Inhibition of melanin synthesis in NHEM cells assessed as [14C]thiouracil incorporation after 72 hrs by liquid scintillation counting; type: functional, cell-based, Homo sapiens; conditions: Homo sapiens, NHEM, 72 h
QUANTITY_KIND: IC50 (µM)
Output spec: scalar in µM, unitless text.

For orientation, consider the following solved cases.
CC(C)=CCc1cc2c(cc1O)OC[C@H]1c3ccc(O)c(CC=C(C)C)c3O[C@@H]21 = 2
CC(C)=CCc1cc2c(cc1O)OC[C@H]1c3cc(C)c(O)c(CC=C(C)C)c3O[C@@H]21 = 3.24

Then this compound:
Lab book: IC50 of COc1c(O)ccc2c1OCC(c1ccc(O)c(OC)c1OC)=C2 [LESPEFLORIN E1] noted as 4.29

###

assay: Cytotoxicity against NHEM cells assessed as cell viability after 72 hrs by WST-8 assay; assay type: cell-based; conditions: human
QUANTITY_KIND: Activity

For orientation, consider the following solved cases.
CC(C)=CCc1c(O)ccc2c1OC[C@H]1c3ccc4c(c3O[C@@H]21)C=CC(C)(C)O4 [ERYBREADIN B] = Non-toxic
COc1ccc2c(c1)OC[C@H]1c3cc(O)c4c(c3O[C@@H]21)C=CC(C)(C)O4 [LESPEFLORIN G12] = Non-toxic
COc1c(O)cc2c(c1CC=C(C)C)O[C@H]1c3cc(CC=C(C)C)c(O)cc3OC[C@@H]21 [LESPEFLORIN G2] = Non-toxic
CC(C)=CCc1cc2c(cc1O)OC[C@H]1c3cc(C)c(O)c(CC=C(C)C)c3O[C@@H]21 [LESPEFLORIN G4] = Non-toxic
COc1c(C)cc2c(c1CC=C(C)C)O[C@H]1c3ccc(O)cc3OC[C@@H]21 [LESPEFLORIN G6] = Non-toxic
CC(C)=CCc1c(O)c(C)cc2c1O[C@H]1c3ccc(O)cc3OC[C@@H]21 [LESPEFLORIN G10] = Non-toxic
COc1ccc2c(c1)OCc1c-2oc2c(CC=C(C)C)c(O)c(O)cc12 [LESPEFLORIN H1] = Non-toxic
COc1c([C@@H]2COc3c(ccc(O)c3CC=C(C)C)C2=O)ccc(O)c1CC=C(C)C [LESPEFLORIN D1] = Non-toxic
CC(C)=CCc1c(O)c(CC=C(C)C)c2c(c1O)C(=O)C[C@@H](c1cc3c(cc1O)OC(C)(C)C=C3)O2 (stereo in doubt; 45) [EUCHRENONE A3] = Non-toxic
CC(C)=CCc1cc2c(c(CC=C(C)C)c1O)O[C@H](c1ccc(O)cc1)CC2=O = Non-toxic

Lab book: Activity of COc1cc(O)ccc1[C@@H]1CC(=O)c2c(O)cc3c(c2O1)C=CC(C)(C)O3 [LESPEFLORIN A4] noted as Non-toxic

Lab book: Activity of CC(C)=CCc1cc([C@H]2Oc3cc(O)c(CC=C(C)C)cc3C(=O)[C@@H]2O)ccc1O [LESPEFLORIN B1] noted as Non-toxic
